Origin of values: paper PMC6937582

# target.under.test: HLA-DR1 (Homo sapiens, UniProt P01903+P01911, A100R/D57E/F55L/F60I/F76Y/I96L/L162R/M171V/P40L/Q125E/R42F/V115G/Y59C)
# Construct: DRα*0101 (Uniprot: P01903, residues 26–207); HLA-DRβ1*0101 (Uniprot: P04229, residues 30–219); made in house
# assay: HLA-DR1 competitive peptide-binding assay
# study.conditions: Fig. 5 B,D,F,H,J; truncated/substituted 5T4_111–130 peptides; competition with biotinylated CLIP99–117, pH 5, overnight 37 °C; representative of two experiments in triplicate; read-out: HLA-DR1 binding (IC50)
No end group written: not given here.
Overview of recorded pIC50 for various sequences
Give only the number. pIC50 is defined as minus log10 of concentration in molar units.

| monomer.sequence | data.value |
| --- | --- |
| RRPPLAELAALNLSGSRL | 6.38 |
| FARRPPLAELAALNLSGS | 6.99 |
| FARRPPLAELAALNLSRSRL | 6.59 |
| FARRPPLAELAALNLSGSRL [5T4_111–130] | 6.87 |
| FARRPPLAELAAANLSGSRL | 6.14 |
| FARRPPLAELAALNLS | 6.44 |

Input: For `LAELAALNL` , what is its reported pIC50?
Output: 5.29

Input: For `PPLAELAALNLSGSRL` , what is its reported pIC50?
Output: 6.64
